So I've got a bunch of molecules here, and I need their Activity of the Enzyme (relative values to the activity to D-fructosyl-glycine being 100) values.
Test system: fructosylamine deglycase
method notes: Substrate specificity of the enzyme to amadori compounds (colorimetric determination of hydrogen peroxide formed)
Assay type: biochemical, Candida guilliermondii 7087
condition: substrate concentration 2 mM
Method: 0.1 ml of 1 mM di-fructosyl-lysine (as dissolved in 0.05M phosphate buffer pH 7.0) is added to 0.4 ml of 0.05M phosphate buffer (pH 7.0) containing 0.3 mM 4-aminoantipyrine, 0.5 mM N-ethyl-N-(2-hydroxy-3-sulfopropyl)-m-toluidine (TOOS) and 2.0 U/ml peroxidase, and the temperature of the resulting system is equilibrated at 37° C. […]

Entry N[C@@H](CCCCNCC(=O)[C@@H](O)[C@H](O)[C@H](O)CO)C(=O)O [D-fructosyl-L-lysine] , system fructosylamine deglycase: what Activity of the Enzyme (relative values to the activity to D-fructosyl-glycine being 100) was measured?
1386

Entry C[C@H](NCC(=O)[C@@H](O)[C@H](O)[C@H](O)CO)C(=O)O [D-fructosyl-L-alanine] , system fructosylamine deglycase: what Activity of the Enzyme (relative values to the activity to D-fructosyl-glycine being 100) was measured?
251

Entry CN(CC(=O)O)CC(=O)[C@@H](O)[C@H](O)[C@H](O)CO [D-fructosyl-sarcosine] , system fructosylamine deglycase: what Activity of the Enzyme (relative values to the activity to D-fructosyl-glycine being 100) was measured?
63

Entry C[C@@H](NCC(=O)[C@@H](O)[C@H](O)[C@H](O)CO)C(=O)O [D-fructosyl-D-alanine] , system fructosylamine deglycase: what Activity of the Enzyme (relative values to the activity to D-fructosyl-glycine being 100) was measured?
26

Entry O=C(O)CCNCC(=O)[C@@H](O)[C@H](O)[C@H](O)CO [D-fructosyl-β-alanine] , system fructosylamine deglycase: what Activity of the Enzyme (relative values to the activity to D-fructosyl-glycine being 100) was measured?
44

Entry CNCC(=O)[C@@H](O)[C@H](O)[C@H](O)CO [D-fructosyl-methylamine] , system fructosylamine deglycase: what Activity of the Enzyme (relative values to the activity to D-fructosyl-glycine being 100) was measured?
105

Entry O=C(CN1CCC[C@H]1C(=O)O)[C@@H](O)[C@H](O)[C@H](O)CO [D-fructosyl-L-proline] , system fructosylamine deglycase: what Activity of the Enzyme (relative values to the activity to D-fructosyl-glycine being 100) was measured?
1348

Entry O=C(O)CNCC(=O)[C@@H](O)[C@H](O)[C@H](O)CO [D-fructosyl-glycine] , system fructosylamine deglycase: what Activity of the Enzyme (relative values to the activity to D-fructosyl-glycine being 100) was measured?
100

Entry O=C(O)[C@H](Cc1ccccc1)NCC(=O)[C@@H](O)[C@H](O)[C@H](O)CO [D-fructosyl-L-phenylalanine] , system fructosylamine deglycase: what Activity of the Enzyme (relative values to the activity to D-fructosyl-glycine being 100) was measured?
36

FYI, the data here is from patent US5387109A.
